B1: VH:VL chains; a variant is named by its letters at X, in order (parent)
chain 1: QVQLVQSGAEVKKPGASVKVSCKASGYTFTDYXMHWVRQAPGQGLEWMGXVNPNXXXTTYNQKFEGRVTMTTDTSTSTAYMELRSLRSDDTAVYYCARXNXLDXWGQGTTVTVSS
chain 2: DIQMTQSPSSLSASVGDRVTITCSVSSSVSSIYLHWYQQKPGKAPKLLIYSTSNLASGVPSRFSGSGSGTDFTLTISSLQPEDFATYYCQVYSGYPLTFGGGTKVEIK

Variants of: B1
testDescription: yeast display scFab, FACS + sequencing
measuredParameter: non-specific binding call

A selection of reference data follows.
VEERDDWF : no binding
VEGTSAAY : no binding
SGTADSSS : binds
YKGAGDVV : no binding
YERESAAV : no binding

# next variant below
# input Given the entry FRGRGSVD , report its measured non-specific binding call.
# output binds
